Reported GI50 values for a set of molecules
Test system: 786-0
assay_details: NCI tumour cell line growth inhibition, 48 h
Calls of active or inactive are those of the source. Rule as the data show it: active = GI50 up to about 1.1 µM and inactive = higher.

molecule	result
CC1OC(n2cc(F)c(=O)[nH]c2=O)C=CC1O (stereo unspecified)	> 100 µM (inactive)
O=C(Cc1ccccc1)NN1C(=O)C(Cl)C1c1ccccc1O (stereo unspecified)	16.8 µM (inactive)
CC(CO)(CBr)COC(=O)c1cc(Br)c(N)c(Br)c1 (stereo unspecified)	50.1 µM (inactive)

## Input # GI50 lookup, item Cc1ccc(N(Cc2ccccc2)Cc2ccccc2)cc1
## Output 73.3 µM (inactive)

## Input Would you kindly repeat that for Cn1c(=O)c2[nH]c(-n3nc(-c4ccccc4)cc3N)nc2n(C)c1=O ?
## Output 6.18 µM (inactive)

## Input Would you kindly repeat that for COc1ccc2[nH]c3c4c(ccc3c2c1)C(=O)C=CC4=O ?
## Output 11.4 µM (inactive)

---

Test system: 786-0
assay_details: NCI tumour cell line growth inhibition, 48 h
Active and inactive are the calls of the source. Rule as the data show it: active = GI50 up to about 1.1 µM and inactive = higher.
Reported GI50 values for a set of compounds

compound	assay_system	GI50
CCOC(=O)[C@@]12CCC(C1=O)[C@](C)(O)C[C@@H]2c1ccccc1	786-0	23.1 µM (inactive)
O=c1c(Cc2ccccc2)c(-c2ccccc2)[nH]n1C1=NCCN1	786-0	37.3 µM (inactive)
O=C1Nc2c(Cl)cccc2/C1=N/Nc1ccccc1[N+](=O)[O-]	786-0	10.1 µM (inactive)
NNC(=O)N/N=C(/CC1(O)C(=O)Nc2ccc(Br)cc21)c1ccccc1 (stereo unspecified)	786-0	57.3 µM (inactive)
CC1(C)OC(=O)C(c2ccsc2)C(=O)O1	786-0	> 100 µM (inactive)

# context switch: different compound, same GI50
## Input # GI50 lookup, item COc1cc([N+](=O)[O-])ccc1NC(=O)C(F)(F)F
## Output > 100 µM (inactive)

---

System: HCT-15
assay_details: NCI tumour cell line growth inhibition, 48 h
Reported GI50 values for a set of compounds
Express your answer in µM, writing the number without its unit.

Past entries and their recorded results:
compound	units_symbol	GI50
CCN(CC)CCSc1c2cc(OC)ccc2nc2ccc(OC)cc12	µM	2.86
COC(=O)/C=C(\S/C(=C(/c1ccccc1)n1cc(C(=O)OC)c(C(=O)OC)n1)c1ccccc1)C(=O)OC	µM	11.6
CN(Cc1cnc2c(N)nc(N)nc2n1)c1ccc(Cl)cc1	µM	71.6

# context switch: different compound, same GI50
## Input # GI50 lookup, item C=CCCC(OCOCCOC)c1cc(C)c(O[Si](C)(C)C(C)(C)C)c(C)c1 (stereo not given)
## Output 13.2

---

System: OVCAR-4
assay_details: NCI tumour cell line growth inhibition, 48 h
Activity calls are given as the source filed them. Cut-off read from the data, not from the text of the source: active = GI50 up to about 1.1 µM and inactive = higher.
Reported GI50 values for a set of compounds

Past entries and their recorded results:
compound	assay_system	quantity	result
COc1ccc2c3c(ccc2c1)NC(C(=O)O)CC3 (stereo unspecified)	OVCAR-4	GI50	65.3 µM (inactive)
CCC/C(=N\NC(=O)c1cc2ccccc2cc1O)C(CC)C(=O)CCC(=O)N(Cc1ccccc1)Cc1ccccc1 (stereo unspecified)	OVCAR-4	GI50	59 µM (inactive)
O=C1NC(=O)c2c1n(Cc1ccccc1)c(=O)n2Cc1ccccc1	OVCAR-4	GI50	> 100 µM (inactive)
COc1ccc([N+]2=NC(c3ccc([N+](=O)[O-])cc3)=NN(c3ccccc3)C2)cc1	OVCAR-4	GI50	22.6 µM (inactive)
N#CN1CC[C@@H]2CC3(CCC2C1)OCCO3 (stereo partly specified)	OVCAR-4	GI50	> 100 µM (inactive)
O=C(NC1=C(Cl)C(=O)c2ccccc2C1=O)C(=O)c1c(O)c2ccccc2oc1=O	OVCAR-4	GI50	7.4 µM (inactive)
OCC1OC(n2cnc3c(Cl)nc(Nc4ccccc4)nc32)CC1O (stereo unspecified)	OVCAR-4	GI50	25.4 µM (inactive)
BrC/C=C/C[P+](c1ccccc1)(c1ccccc1)c1ccccc1	OVCAR-4	GI50	41.1 µM (inactive)

## Input Provide value of GI50 for this record tested with OVCAR-4: CCOC(=O)C1(Cc2ccc(C)cc2)Cc2ccc(C)cc2C1=O (stereo unspecified)
## Output 36.4 µM (inactive)

## Input Would you kindly repeat that for Nc1cccc(C#Cc2cccc(C#Cc3cccc(N)n3)n2)n1 ?
## Output > 100 µM (inactive)

## Input Would you kindly repeat that for CCCN(CCCCC(NC(C)=O)C(=O)NCc1ccccc1)C(=O)NC (stereo unspecified) ?
## Output > 100 µM (inactive)

---

System: IGROV-1
assay_details: NCI tumour cell line growth inhibition, 48 h
Activity calls are given as the source filed them. Rule as the data show it: active = GI50 up to about 1.1 µM and inactive = higher.
quantity: GI50

Past entries and their recorded results:
compound	GI50
CCc1ccccc1NC(=O)c1cccc([N+](=O)[O-])c1O	23 µM (inactive)
Nc1nc(N)c(Cn2ccnc2)c(O)n1	> 100 µM (inactive)
O=[N+]([O-])c1ccc(Cl)c(CNc2ncnc3c2ncn3C2CCCCO2)c1 (stereo unspecified)	58.2 µM (inactive)
CC1=NOC2(C1)/C(=N/O)CCC/C2=N\O (stereo unspecified)	> 100 µM (inactive)
COC(=O)c1c(O)ccc(O)c1C(C(C)=O)C(C)=O	> 100 µM (inactive)

## Input # GI50 lookup, item COc1ccc(C(=O)N2CCc3c([nH]c4ccccc34)C2C(=O)O)o1 (stereo unspecified)
## Output > 10 µM (inactive)

## Input Would you kindly repeat that for CN(NC(=O)CCCl)C1=NCCN1 ?
## Output > 100 µM (inactive)

## Input Would you kindly repeat that for Cn1c(=O)sc2cc(C(=S)N3CCC(Cc4ccccc4)CC3)ccc21 ?
## Output 33.8 µM (inactive)

## Input Would you kindly repeat that for C=C[Si](C)(C)COC(=O)/C(C#N)=C/C=C/c1ccccc1 ?
## Output > 100 µM (inactive)

## Input Would you kindly repeat that for NC(=O)c1c[se]c(C2OC(CO)C(O)C2O)n1 (stereo unspecified) ?
## Output 4.98 µM (inactive)

## Input Would you kindly repeat that for CCN1CCC(O)(c2ccc([N+](=O)[O-])cc2)C(C(=O)c2ccc([N+](=O)[O-])cc2)C1 (stereo unspecified) ?
## Output 18.2 µM (inactive)

---

Reported GI50 values for a set of compounds
Test system: NCI-H460
assay_details: NCI tumour cell line growth inhibition, 48 h
The source made the active and inactive calls. No stated cut-off is given here; in the data, active = GI50 up to about 1.1 µM and inactive = higher.

Past entries and their recorded results:
compound	result
Cc1nccn1S(=O)(=O)c1ccc(Cl)cc1	41.9 µM (inactive)
COc1ccc(/C(Cl)=C(\C=O)c2ccc(Cl)cc2)cc1OC	3.54 µM (inactive)
Nc1nc(SCCC/C=C/B(O)O)nc2c1ncn2C1OC(CO)C(O)C1O (configuration not stated)	> 243 µM (inactive)
CC1(C)C2CCC(N)(C2)C1N (configuration not stated)	> 100 µM (inactive)
COc1cc2nc(-c3cccs3)[nH]c(=O)c2cc1OC	> 100 µM (inactive)

## Input # GI50 lookup, item CCCN(CCCCC(NC(C)=O)C(=O)NCc1ccccc1)C(=O)NC (configuration not stated)
## Output > 100 µM (inactive)

## Input Would you kindly repeat that for C1CCC(CC2CCC(NC3=NCCO3)CC2)CC1 (configuration not stated) ?
## Output 20.2 µM (inactive)

## Input Would you kindly repeat that for CCOc1c(OC)cc(CNNc2nccs2)cc1OC ?
## Output 27 µM (inactive)

## Input Would you kindly repeat that for C1=Cc2cccc3occ(c23)C=C1 ?
## Output 41.3 µM (inactive)

## Input Would you kindly repeat that for CCCCCCCCCC(=O)OCC1(CO)C/C(=C/CC(C(C)C)C(C)C)C(=O)O1 (configuration not stated) ?
## Output 23.5 µM (inactive)

## Input Would you kindly repeat that for CNC1=Nc2ccc(Cl)cc2C(c2ccccc2)=NN1C ?
## Output > 100 µM (inactive)

## Input Would you kindly repeat that for O=C1Nc2cc(Cl)ccc2C(=O)N2CCC[C@@H]12 ?
## Output > 100 µM (inactive)

---

Test system: NCI-H226
assay_details: NCI tumour cell line growth inhibition, 48 h
Calls of active or inactive are those of the source. No stated cut-off is given here; in the data, active = GI50 up to about 1.1 µM and inactive = higher.
quantity: GI50

Past entries and their recorded results:
compound	quantity	result
C=CCC1C2CCC(O[Si](C(C)C)(C(C)C)C(C)C)(C(C(=O)OC)C2)C1O (stereo unspecified)	GI50	> 100 µM (inactive)
CCOc1c(OC)cc(CNNc2nccs2)cc1OC	GI50	> 100 µM (inactive)
Nc1cccc(C#Cc2cccc(C#Cc3cccc(N)n3)n2)n1	GI50	> 100 µM (inactive)
CC(NC(=O)c1ccc(NP(=O)(OCc2ccc([N+](=O)[O-])o2)N(C)CCCCCl)cc1)c1ccc(OCC2CCCCC2)c(C(N)=O)c1 (stereo unspecified)	GI50	16.4 µM (inactive)
CC1=C(C(=O)Nc2ccccc2C)C(c2ccccc2C)C(C(=O)Nc2ccccc2C)=C(C)N1	GI50	21.5 µM (inactive)

## Input # GI50 lookup, item N=C(N)NS(=O)(=O)c1ccc(NC(=O)c2cccc3cc4ccccc4nc23)cc1
## Output 9.75 µM (inactive)

## Input Would you kindly repeat that for O/N=C1/C(=C/c2ccc(OCc3ccccc3)cc2)CCCC1C(NO)c1ccc(OCc2ccccc2)cc1 (stereo unspecified) ?
## Output > 100 µM (inactive)

## Input Would you kindly repeat that for COC(=O)/C(=N/NC(C)(C)C)C(C(=O)OC)C(=O)C(=O)Nc1nc2ccc([N+](=O)[O-])cc2s1 (stereo unspecified) ?
## Output > 100 µM (inactive)

## Input Would you kindly repeat that for CC1=C(C(=O)OC(C)C)C(c2cccc([N+](=O)[O-])c2)C(C(=O)OC(CO[N+](=O)[O-])CO[N+](=O)[O-])=C(C)N1 (stereo unspecified) ?
## Output 6.55 µM (inactive)

## Input Would you kindly repeat that for NNC(=O)N/N=C(/CC1(O)C(=O)Nc2ccc(Br)cc21)c1ccccc1 (stereo unspecified) ?
## Output 82.6 µM (inactive)

## Input Would you kindly repeat that for O=c1[nH]cnc2[nH]nnc12 ?
## Output 5.6 µM (inactive)

These entries and their values trace back to ChEMBL document CHEMBL1201862.
